Values were extracted from patent US20250270343A1.

Target: T1, soluble human GPNMB (recombinant extracellular domain) (human, UniProt Q14956 23-498)
T1 construct: also called huGPNMB; recombinant human GPNMB extracellular domain; not shown: C-terminal polyhistidine or Avi-His tag
T1 sequence: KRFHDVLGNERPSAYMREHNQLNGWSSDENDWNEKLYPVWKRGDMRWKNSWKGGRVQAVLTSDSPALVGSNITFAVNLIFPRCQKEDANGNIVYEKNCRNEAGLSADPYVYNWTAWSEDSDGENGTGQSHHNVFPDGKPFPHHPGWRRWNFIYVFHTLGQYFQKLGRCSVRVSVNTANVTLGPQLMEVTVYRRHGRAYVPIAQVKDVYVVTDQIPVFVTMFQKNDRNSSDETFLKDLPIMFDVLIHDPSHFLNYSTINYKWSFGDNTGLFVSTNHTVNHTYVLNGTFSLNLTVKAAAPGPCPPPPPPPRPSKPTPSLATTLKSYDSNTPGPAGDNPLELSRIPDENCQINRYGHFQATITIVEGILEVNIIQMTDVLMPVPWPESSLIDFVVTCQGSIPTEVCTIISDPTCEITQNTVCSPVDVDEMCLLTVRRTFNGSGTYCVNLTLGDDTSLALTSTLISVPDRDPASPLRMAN
Assay: SPR Carterra, Ab immobilized
Method: Binding kinetics of human anti-GPNMB IgG1 antibodies of the present disclosure to human, cynomolgus, and mouse GPNMB were evaluated using a Carterra LSA instrument (Carterra, Salt Lake City, UT). […] A HC200M sensor chip (Carterra) was activated using the single channel flow cell with a 7-minute injection of a 1:1:1 mixture of 100 mM MES pH 5.5, 100 mM sulfo-NHS, 400 mM EDC (all reconstituted in MES pH 5.5; 100 μl of each mixed in vial immediately before running assay). […]
MEASURE_NAME: Kd (nM)
Value expressed in nM; do not type the unit.

Looking up anti-GPNMB antibody GPN-24 (antibody, human IgG1, V domains shown, chimeric) VH: QVQLQQPGAELVKPGASVKMSCKASGYTFTSYWITWVKQRPGQGLEWIGDIHPGSGRSNYNEKFKNKATLNVDTSSSTVYMQLSSLTSEDSAVYYCARDYLFAYWGQGTLVTVSA VL: DIQMTQSPSSLSASLGERVSLTCRASQEISGYLSWLQQKPDGTIKRLIYSTSTLDSGVPKRFSGSRSGSDYSLTISSLESEDFADYYCLQYTSSPPTFGGGTKLEIK , I found its Kd recorded as 8.8
